Data provenance: patent US10654860B2

Parameter 'readout' = pIC50; parameter 'system' = ROCK2 (Homo sapiens (Human)).
Sequence (O75116 whole entry, species assumed): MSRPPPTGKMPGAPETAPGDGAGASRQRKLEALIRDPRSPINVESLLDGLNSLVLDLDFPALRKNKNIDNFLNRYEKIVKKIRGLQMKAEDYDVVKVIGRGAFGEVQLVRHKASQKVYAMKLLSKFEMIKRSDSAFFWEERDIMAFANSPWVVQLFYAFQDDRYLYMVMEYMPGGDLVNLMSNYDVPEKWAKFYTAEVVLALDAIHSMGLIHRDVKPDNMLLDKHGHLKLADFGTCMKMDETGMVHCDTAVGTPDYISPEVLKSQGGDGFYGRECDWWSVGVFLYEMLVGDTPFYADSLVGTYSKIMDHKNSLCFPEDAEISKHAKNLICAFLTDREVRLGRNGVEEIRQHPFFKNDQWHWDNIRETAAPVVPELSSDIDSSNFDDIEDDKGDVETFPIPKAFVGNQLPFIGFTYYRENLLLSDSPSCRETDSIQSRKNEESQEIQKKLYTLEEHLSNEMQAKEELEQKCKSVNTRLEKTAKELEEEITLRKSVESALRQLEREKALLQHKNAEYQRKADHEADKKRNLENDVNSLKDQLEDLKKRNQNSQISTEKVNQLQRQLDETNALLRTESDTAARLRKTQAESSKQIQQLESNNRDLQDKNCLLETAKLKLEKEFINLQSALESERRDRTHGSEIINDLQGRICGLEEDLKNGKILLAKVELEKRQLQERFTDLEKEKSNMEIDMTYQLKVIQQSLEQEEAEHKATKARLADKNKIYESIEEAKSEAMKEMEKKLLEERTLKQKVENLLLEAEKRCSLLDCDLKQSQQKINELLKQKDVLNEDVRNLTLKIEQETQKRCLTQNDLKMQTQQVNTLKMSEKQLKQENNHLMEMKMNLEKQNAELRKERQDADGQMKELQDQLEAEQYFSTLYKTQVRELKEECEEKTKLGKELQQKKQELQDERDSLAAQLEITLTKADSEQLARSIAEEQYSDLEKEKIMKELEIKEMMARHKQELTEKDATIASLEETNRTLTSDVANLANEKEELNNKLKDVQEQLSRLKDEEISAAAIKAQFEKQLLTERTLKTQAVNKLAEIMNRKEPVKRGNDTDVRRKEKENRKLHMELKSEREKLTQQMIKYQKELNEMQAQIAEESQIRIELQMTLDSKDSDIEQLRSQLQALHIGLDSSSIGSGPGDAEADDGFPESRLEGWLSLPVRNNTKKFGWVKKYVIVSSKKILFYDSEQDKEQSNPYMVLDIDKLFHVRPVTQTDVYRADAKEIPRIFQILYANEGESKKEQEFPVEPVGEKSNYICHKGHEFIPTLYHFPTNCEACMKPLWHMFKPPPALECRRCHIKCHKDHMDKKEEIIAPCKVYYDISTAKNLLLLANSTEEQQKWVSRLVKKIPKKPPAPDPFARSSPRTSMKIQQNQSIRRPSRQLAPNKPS
pIC50: −log10 of the molar value.

// query Enter reported pIC50 observed with ROCK2 (Homo sapiens (Human)) for Cc1c(F)cccc1CN1CCN(c2ccc3c(n2)OCc2n[nH]cc2-3)C1=O
// result 7.00 to 8.00

###

pIC50: −log10 of the molar value.
Parameter 'readout' = pIC50; parameter 'system' = ROCK2 (Homo sapiens (Human)).

See these solved cases before continuing.
CC(C)(C)c1cccc(CN2CCN(c3ccc4c(n3)OCc3n[nH]cc3-4)C2=O)c1 [Example 31]
5.70 to 6.30
O=C1N(Cc2cccc(F)c2)CCN1c1ccc2c(n1)OCc1n[nH]cc1-2 [Example 25]
6.30 to 7.00

// query Fill in the blank: the reported pIC50 of N#Cc1cccc(NC2CCN(c3ccc4c(n3)OCc3n[nH]cc3-4)C2=O)c1 (racemic) [Example 34] is ____.
// result 5.70 to 6.30
